Hello, the source for this data is patent EP1306084A1, in case you need it.

# TEST_DESCRIPTION: Chemical analysis of muscle with skin after injection (Example 7)
# Format: in vivo, salmon (Salmo salar)
# CONDITION_DESCRIPTION: fish, 50 mg/kg, T11, 345 days after injection, second-named group, read-out: muscle/skin concentration of hexaflumuron
MEASURE_NAME: concentration at 8280 h

Return reported concentration at 8280 h. Input molecule: O=C(NC(=O)c1c(F)cccc1F)Nc1cc(Cl)c(OC(F)(F)C(F)F)c(Cl)c1 [hexaflumuron]
110 ng/g

----------
# TEST_DESCRIPTION: Chemical analysis of muscle/skin tissue after oral treatment (Example 6)
# Assay type: in vivo, Atlantic salmon (Salmo salar)
# CONDITION_DESCRIPTION: atlantic salmon, 5.6 mg/kg, two days after completed oral medication (5.6 mg per kg, 7 days), five fish, read-out: average concentration of hexaflumuron in muscle/skin tissue
MEASURE_NAME: concentration at 48 h (ng/g)
Entry rule: numbers only, all in ng/g.

Complete the entry with concentration at 48 h for O=C(NC(=O)c1c(F)cccc1F)Nc1cc(Cl)c(OC(F)(F)C(F)F)c(Cl)c1 [hexaflumuron]
4400
